Just for reference, patent US11780841B2 is where these values come from.

The following molecules are shown together with reported pIC50 values.
# Tested on: recombinant rabies virus 1088 strain expressing Gaussia Luciferase (GLuc) (1088/GLuc)
# Assay type: cell-based
# conditionDetails: read-out: IC50
pIC50: −log10 of the molar value.
observationType: pIC50

> print(dat)
                                   molecule  observationtype  observed
1  Cc1cccc(CNC(=O)[C@]23NC[C@@H]4C[C@H]2CN(CC(C)C)[C@H]3[C@@H]4Cc2ccccc2)c1 (relative stereo) [IB-15]            pIC50      4.80
2  CC(C)CNC(=O)[C@]12N=C[C@@H]3C[C@H]1CN(Cc1ccccc1)[C@H]2[C@@H]3CC(C)C (relative stereo) [IIB-4]            pIC50      5.05
3  Cc1cccc(CNC(=O)[C@@]23C[C@@H]4CN(CC(C)C)[C@@H]([C@@H]4CN2)[C@H]3Cc2ccccc2)c1 (relative stereo) [IF-15]            pIC50      4.77
4  CC(C)C[C@@H]1[C@@H]2[C@@H]3CN[C@@]1(C(=O)NCc1ccccc1)C[C@@H]3CN2Cc1ccccc1 (relative stereo) [IF-7]            pIC50      5.07
5  Cc1ccc(CNC(=O)[C@@]23C[C@@H]4CN(CC(C)C)[C@@H]([C@@H]4C=N2)[C@H]3Cc2ccccc2)cc1 (relative stereo) [IIF-16]            pIC50      4.54
6  CC(C)CNC(=O)[C@@]12C[C@@H]3CN(Cc4ccccc4)[C@@H]([C@@H]3CN1)[C@H]2Cc1ccccc1 (relative stereo) [IF-6]            pIC50      4.79
7  CC(C)C[C@@H]1[C@@H]2CN[C@@]3(C(=O)NCc4ccccc4)[C@@H](C2)CN(CC(C)C)[C@@H]13 (relative stereo) [IB-5]            pIC50      4.74
